Listed here are binders together with their documented ratio of 11 nM antibody binding signal (RLU) to isotype control.
Molecular target: full length monkey MSR1 on HEK293.mfMSR1 cells (Macaca fascicularis)
Sequence (chain, as listed by the source): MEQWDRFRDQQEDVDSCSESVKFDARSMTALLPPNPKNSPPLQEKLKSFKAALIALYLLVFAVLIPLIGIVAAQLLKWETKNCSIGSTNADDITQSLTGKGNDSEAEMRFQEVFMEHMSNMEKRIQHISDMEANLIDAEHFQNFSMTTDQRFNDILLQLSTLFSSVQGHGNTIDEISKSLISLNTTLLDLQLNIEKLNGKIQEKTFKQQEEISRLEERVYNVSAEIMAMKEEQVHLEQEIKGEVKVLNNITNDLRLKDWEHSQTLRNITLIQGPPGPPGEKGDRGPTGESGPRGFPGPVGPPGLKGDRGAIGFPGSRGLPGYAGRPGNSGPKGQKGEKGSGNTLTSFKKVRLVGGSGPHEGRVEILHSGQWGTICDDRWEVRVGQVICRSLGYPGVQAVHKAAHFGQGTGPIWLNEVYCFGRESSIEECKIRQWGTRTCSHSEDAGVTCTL
Experiment: ECL cell binding, HEK293.mfMSR1 cells
Please give the numeric answer without any surrounding text.

>>> result_number("H1H21227N-N297D (antibody, human IgG1, V domains shown) VH: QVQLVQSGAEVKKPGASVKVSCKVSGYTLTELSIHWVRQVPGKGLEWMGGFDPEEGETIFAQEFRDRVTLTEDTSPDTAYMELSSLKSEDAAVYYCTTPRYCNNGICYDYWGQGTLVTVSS VL: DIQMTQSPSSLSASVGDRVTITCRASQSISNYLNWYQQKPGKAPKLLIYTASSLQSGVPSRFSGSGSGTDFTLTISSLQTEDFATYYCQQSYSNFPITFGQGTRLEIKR")
25

IN: Using known records, supply ratio of 11 nM antibody binding signal (RLU) to isotype control for H1H27734P-N297Q (antibody, human IgG1, V domains shown) VH: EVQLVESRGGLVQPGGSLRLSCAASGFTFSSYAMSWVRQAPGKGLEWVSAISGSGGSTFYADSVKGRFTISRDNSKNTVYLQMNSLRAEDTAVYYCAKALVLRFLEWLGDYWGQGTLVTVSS VL: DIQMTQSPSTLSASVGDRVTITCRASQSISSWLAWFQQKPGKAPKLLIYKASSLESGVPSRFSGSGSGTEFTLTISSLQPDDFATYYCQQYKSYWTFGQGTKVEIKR
OUT: 28
